Collected literature values of IC50 measured for Serine/threonine-protein kinase PLK1 (Homo sapiens).
measured-attribute: IC50

>  <compound>
CC(C)N1CC(C(O)c2ccc([C@H](C)Nc3ncc(F)c(-c4cnc5c(Cl)cccn45)n3)cc2)C1 (single isomer, unassigned)

>  <tested-target>
Serine/threonine-protein kinase PLK1 (Homo sapiens)

>  <measured-attribute>
IC50

>  <reading>
2.4 nM

$$$$
>  <compound>
CS(=O)(=O)Nc1ccc2c(c1)/C(=C\c1ccc3nn[nH]c3c1)C(=O)N2

>  <tested-target>
Serine/threonine-protein kinase PLK1 (Homo sapiens)

>  <measured-attribute>
IC50

>  <reading>
5000 to 50000 nM

$$$$
>  <compound>
CN(C)[C@H]1CCN(C(=O)c2ccc(-c3c(F)cnc4[nH]c5cnc(-c6cccnc6)cc5c34)cc2)C1

>  <tested-target>
Serine/threonine-protein kinase PLK1 (Homo sapiens)

>  <measured-attribute>
IC50

>  <reading>
100 to 1000 nM

$$$$
>  <compound>
CC[C@@H]1CC[C@@]2(CC)C(=O)N(C)c3cnc(-n4ccnc4-c4ccccc4)nc3N12

>  <tested-target>
Serine/threonine-protein kinase PLK1 (Homo sapiens)

>  <measured-attribute>
IC50

>  <reading>
< 1000 nM

$$$$
>  <compound>
NC(=O)c1sc(-n2cnc3ccc(CN(CCCN4CCOCC4)CCCN4CCOCC4)cc32)nc1-c1cccc(Cl)c1

>  <tested-target>
Serine/threonine-protein kinase PLK1 (Homo sapiens)

>  <measured-attribute>
IC50

>  <reading>
566 nM

$$$$
>  <compound>
CN1CCN(Cc2ccc3c(c2)ncn3-c2nc(-c3cccc(Cl)c3)c(C(N)=O)s2)CC1

>  <tested-target>
Serine/threonine-protein kinase PLK1 (Homo sapiens)

>  <measured-attribute>
IC50

>  <reading>
1100 nM

$$$$
>  <compound>
CC[C@@H]1C(=O)N(C)c2cnc(Nc3ccc(CCCCCC(=O)N[C@@H](CC(C)C)C(=O)OC4CCCC4)cc3F)nc2N1C1CCCC1

>  <tested-target>
Serine/threonine-protein kinase PLK1 (Homo sapiens)

>  <measured-attribute>
IC50

>  <reading>
> 500 nM

$$$$

* * *

Several publications report IC50 on Serine/threonine-protein kinase PLK1 (Homo sapiens, UniProt P53350); those values are gathered here.
measured-attribute: IC50

>  <compound>
CN1CCN(Cc2ccc3ncn(-c4nc(-c5cccc(C(F)(F)F)c5)c(C(N)=O)s4)c3c2)CC1

>  <tested-target>
Serine/threonine-protein kinase PLK1 (Homo sapiens, UniProt P53350)

>  <measured-attribute>
IC50

>  <reading>
59 nM

$$$$
>  <compound>
COc1cc2ncn(-c3nc(-c4ccccc4Cl)c(C(=O)O)s3)c2cc1OC

>  <tested-target>
Serine/threonine-protein kinase PLK1 (Homo sapiens, UniProt P53350)

>  <measured-attribute>
IC50

>  <reading>
3600 nM

$$$$
>  <compound>
O=C1NCCCc2c1[nH]c1ccc(O)cc21

>  <tested-target>
Serine/threonine-protein kinase PLK1 (Homo sapiens, UniProt P53350)

>  <measured-attribute>
IC50

>  <reading>
> 100000 nM

$$$$
>  <compound>
O=C1Nc2ccc(C(=O)Nc3ccccc3)cc2/C1=C\c1ccc2cn[nH]c2c1

>  <tested-target>
Serine/threonine-protein kinase PLK1 (Homo sapiens, UniProt P53350)

>  <measured-attribute>
IC50

>  <reading>
> 50000 nM

$$$$
>  <compound>
CC[C@@H]1C(=O)N(C)c2cnc(Nc3ccc(C(=O)NC4CCN(C)CC4)cc3OC3CCCC3)nc2N1C1CCCC1

>  <tested-target>
Serine/threonine-protein kinase PLK1 (Homo sapiens, UniProt P53350)

>  <measured-attribute>
IC50

>  <reading>
19 nM

$$$$
>  <compound>
O=C(O)c1sc(-n2cnc3cccc(O)c32)nc1-c1ccccc1

>  <tested-target>
Serine/threonine-protein kinase PLK1 (Homo sapiens, UniProt P53350)

>  <measured-attribute>
IC50

>  <reading>
4680 nM

$$$$
>  <compound>
CN1CCN(Cc2ccc3ncn(-c4nc(-c5ccccc5)c(C(N)=O)s4)c3c2)CC1

>  <tested-target>
Serine/threonine-protein kinase PLK1 (Homo sapiens, UniProt P53350)

>  <measured-attribute>
IC50

>  <reading>
167 nM

$$$$
>  <compound>
O=C(NCCNc1ccccc1)c1ccc(-c2c(F)cnc3[nH]c4cnc(-c5cccnc5)cc4c23)cc1

>  <tested-target>
Serine/threonine-protein kinase PLK1 (Homo sapiens, UniProt P53350)

>  <measured-attribute>
IC50

>  <reading>
< 100 nM

$$$$
>  <compound>
CC(C)(C)OC(=O)Nc1ccc2c(c1)NC(=O)/C2=C/c1ccc2cn[nH]c2c1

>  <tested-target>
Serine/threonine-protein kinase PLK1 (Homo sapiens, UniProt P53350)

>  <measured-attribute>
IC50

>  <reading>
> 50000 nM

$$$$
>  <compound>
CC[C@@H]1C(=O)N(C)c2cnc(-n3cnc(-c4cscn4)c3)nc2N1C1CCCC1

>  <tested-target>
Serine/threonine-protein kinase PLK1 (Homo sapiens, UniProt P53350)

>  <measured-attribute>
IC50

>  <reading>
< 1000 nM

$$$$
>  <compound>
NC(=O)c1sc(-n2cnc3ccc(OCCCNCCO)cc32)nc1-c1cccc(Cl)c1

>  <tested-target>
Serine/threonine-protein kinase PLK1 (Homo sapiens, UniProt P53350)

>  <measured-attribute>
IC50

>  <reading>
80 nM

$$$$
>  <compound>
CN(C)CCCNC(=O)c1ccc(-c2c(F)cnc3[nH]c4cnc(-c5cnn(C)c5)cc4c23)cc1

>  <tested-target>
Serine/threonine-protein kinase PLK1 (Homo sapiens, UniProt P53350)

>  <measured-attribute>
IC50

>  <reading>
1000 to 5000 nM

$$$$
>  <compound>
CC[C@@]12CCCN1c1nc(-n3ccnc3-c3cnccn3)ncc1N(C)C2=O

>  <tested-target>
Serine/threonine-protein kinase PLK1 (Homo sapiens, UniProt P53350)

>  <measured-attribute>
IC50

>  <reading>
> 50000 nM

$$$$
>  <compound>
CC[C@@H]1C(=O)N(C)c2cnc(-n3ccc(C(=O)O)n3)nc2N1C1CCCC1

>  <tested-target>
Serine/threonine-protein kinase PLK1 (Homo sapiens, UniProt P53350)

>  <measured-attribute>
IC50

>  <reading>
1000 to 10000 nM

$$$$
>  <compound>
CC[C@@H]1C(=O)N(C)c2cnc(N(C)c3ccc(C(=O)NC4CCN(C)CC4)cc3OC)nc2N1C1CCCC1

>  <tested-target>
Serine/threonine-protein kinase PLK1 (Homo sapiens, UniProt P53350)

>  <measured-attribute>
IC50

>  <reading>
725 nM

$$$$
>  <compound>
Cc1n[nH]c(C)c1-c1cnc2[nH]c3cnc(-c4cccnc4)cc3c2c1

>  <tested-target>
Serine/threonine-protein kinase PLK1 (Homo sapiens, UniProt P53350)

>  <measured-attribute>
IC50

>  <reading>
100 to 1000 nM

$$$$
>  <compound>
CN(C)CCNC(=O)c1cccc(-c2c(F)cnc3[nH]c4cnc(-c5cccnc5)cc4c23)c1

>  <tested-target>
Serine/threonine-protein kinase PLK1 (Homo sapiens, UniProt P53350)

>  <measured-attribute>
IC50

>  <reading>
1000 to 5000 nM

$$$$
>  <compound>
CC[C@@H]1C(=O)N(C)c2cnc(-n3ccnc3-c3nccs3)nc2N1C1CCOC1 (some centres unmarked)

>  <tested-target>
Serine/threonine-protein kinase PLK1 (Homo sapiens, UniProt P53350)

>  <measured-attribute>
IC50

>  <reading>
1000 to 10000 nM

$$$$
>  <compound>
CC[C@@H]1C(=O)N(C)c2cnc(Nc3ccc(C(=O)NC4CCN(CCCC(=O)N[C@H](CC(C)C)C(=O)OC5CCCC5)CC4)cc3OC)nc2N1C1CCCC1

>  <tested-target>
Serine/threonine-protein kinase PLK1 (Homo sapiens, UniProt P53350)

>  <measured-attribute>
IC50

>  <reading>
< 100 nM

$$$$
>  <compound>
CC[C@@]12COCCN1c1nc(-c3snnc3-c3ccc(F)cc3F)ncc1N(C)C2=O

>  <tested-target>
Serine/threonine-protein kinase PLK1 (Homo sapiens, UniProt P53350)

>  <measured-attribute>
IC50

>  <reading>
10000 to 50000 nM

$$$$
>  <compound>
CCC1C(=O)N(C)c2cnc(-n3ccnc3-c3ccc(F)cc3)nc2N1c1ccccc1 (centres unmarked)

>  <tested-target>
Serine/threonine-protein kinase PLK1 (Homo sapiens, UniProt P53350)

>  <measured-attribute>
IC50

>  <reading>
1000 to 10000 nM

$$$$
>  <compound>
CC[C@@H]1C(=O)N(C)c2cnc(-c3ccncc3)nc2N1C1CCC1

>  <tested-target>
Serine/threonine-protein kinase PLK1 (Homo sapiens, UniProt P53350)

>  <measured-attribute>
IC50

>  <reading>
1000 to 10000 nM

$$$$
>  <compound>
Cc1cc(C(=O)NC2CCN(C)CC2)ccc1Nc1ncc2c(n1)N(C1CCCC1)CC(C)C(=O)N2C (racemic)

>  <tested-target>
Serine/threonine-protein kinase PLK1 (Homo sapiens, UniProt P53350)

>  <measured-attribute>
IC50

>  <reading>
< 500 nM

$$$$
>  <compound>
CCN(CC)CCN1CCN(c2c(F)cnc3[nH]c4cnc(-c5cccnc5)cc4c23)CC1

>  <tested-target>
Serine/threonine-protein kinase PLK1 (Homo sapiens, UniProt P53350)

>  <measured-attribute>
IC50

>  <reading>
100 to 1000 nM

$$$$
>  <compound>
CNS(=O)(=O)c1ccc2c(c1)C(=Cc1ccc3[nH]nnc3c1)C(=O)N2

>  <tested-target>
Serine/threonine-protein kinase PLK1 (Homo sapiens, UniProt P53350)

>  <measured-attribute>
IC50

>  <reading>
5000 to 50000 nM

$$$$
>  <compound>
COc1cc(C(=O)NC2CCN(C)CC2)ccc1Nc1ncc2c(n1)N(Cc1ccccc1)CCC(=O)N2C

>  <tested-target>
Serine/threonine-protein kinase PLK1 (Homo sapiens, UniProt P53350)

>  <measured-attribute>
IC50

>  <reading>
500 to 5000 nM

$$$$
>  <compound>
CC[C@@H]1C(=O)N(C)c2cnc(Nc3ccc(C(=O)NC4CCN(CCCCC(=O)N[C@@H](CC(C)C)C(=O)O)CC4)cc3OC)nc2N1C1CCCC1

>  <tested-target>
Serine/threonine-protein kinase PLK1 (Homo sapiens, UniProt P53350)

>  <measured-attribute>
IC50

>  <reading>
< 100 nM

$$$$
>  <compound>
CC1CN(C2CCCC2)c2nc(Nc3ccc(C(=O)Nc4cccnc4)c(Cl)c3)ncc2N(C)C1=O (racemic)

>  <tested-target>
Serine/threonine-protein kinase PLK1 (Homo sapiens, UniProt P53350)

>  <measured-attribute>
IC50

>  <reading>
> 5000 nM

$$$$
>  <compound>
CN(C)[C@@H]1CCN(C(=O)c2ccc(-c3c(F)cnc4[nH]c5cnc(-c6cccnc6)cc5c34)cc2)C1

>  <tested-target>
Serine/threonine-protein kinase PLK1 (Homo sapiens, UniProt P53350)

>  <measured-attribute>
IC50

>  <reading>
100 to 1000 nM

$$$$
>  <compound>
CCC1C(=O)N(C)c2cnc(-n3ccnc3-c3ccccc3)nc2N1N1CCCC1 (centres unmarked)

>  <tested-target>
Serine/threonine-protein kinase PLK1 (Homo sapiens, UniProt P53350)

>  <measured-attribute>
IC50

>  <reading>
< 1000 nM

$$$$
>  <compound>
NC(=O)c1sc(-n2cnc3ccc(OCC(O)CN4CCOCC4)cc32)nc1-c1cccc(Cl)c1 (centres unmarked)

>  <tested-target>
Serine/threonine-protein kinase PLK1 (Homo sapiens, UniProt P53350)

>  <measured-attribute>
IC50

>  <reading>
13 nM

$$$$
>  <compound>
COc1cc2ncn(-c3nc(-c4cccc(Cl)c4)c(C(N)=O)s3)c2cc1OC

>  <tested-target>
Serine/threonine-protein kinase PLK1 (Homo sapiens, UniProt P53350)

>  <measured-attribute>
IC50

>  <reading>
431 nM

$$$$
